Could you please report measured koff for the items listed next?
Molecular target: T1, cynomolgus SIRP-α D1 domain (cyno2) (cynomolgus monkey, UniProt Q5TFQ8 30-148 (human entry), limits assumed)
T1 chain: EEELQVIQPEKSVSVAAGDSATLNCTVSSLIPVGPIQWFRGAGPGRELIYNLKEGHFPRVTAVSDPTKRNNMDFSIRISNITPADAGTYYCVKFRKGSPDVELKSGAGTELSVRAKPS
Test: SPR, Langmuir fit
Quick note: give the figure in s⁻¹, leave out the unit.

**Query** Supply recorded koff for S28 (scFv, V domains shown, also called clone 28) VH: DVQLVESGGGVVRPGESLRLSCAASGFSFSSNAMSWVRQAPGKGLEWVAGISASGDTYYSGSMKGRFTISRDNSKNTLYLQMNSLTAEDTAVYYCARETWNHLFDYWGLGTLVTVSS VL: ALTQPASVSANPGETVKITCSGGSDSYYYGWHQQKSPGSAPVTVIYSDDQRPPDIPSRFSGSASGSTTTLTITGVRAEDEAVYYCGGYDYSTYTNTFGAGTTLTVL here.
**Result** 0.000132

**Query** Supply recorded koff for S30 (scFv, V domains shown, also called clone 30) VH: DVQLVESGGGVVRPGESLRLSCEASGFTFSSDAMSWVRQAPGKGLEWVSGISSGSSTYYGGSVKGRFTISRDNSKNTLYLQMNSLTAEDTAVYYCARETWNHLFDYWGLGTLVTVSS VL: ALTQPASVSASPGETVEITCSGGSDSSYYYGWYQQKSPGSAPVTVIYSDNKRPSNIPSRFSGSASGSTATLTITGVRVEDEAVYYCGGYDYSTYTNPFGAGTTLTVL here.
**Result** 0.000366

**Query** Supply recorded koff for S162 (scFv, V domains shown) VH: DVQLVESGGGLVRPGESLRLSCAASGFTFTNYAVTWVRQAPGEGLEWVSLISVTGTTYYADSVKGRFTISRDNSKSTLYLQMNSLRAEDTAVYYCAKVTWKNVFDYWGLGTLVTVSS VL: EIVLTQSPGTLSVSPGERATFSCRASQTVGSKLAWYQQKPGQAPRLLIYDANTRATGIPARFSGSGSGTEFTLTISSLQSEDFAVYYCQQHTDWPPYTFGGGTKVEIK here.
**Result** 0.000318
